- System: Escherichia coli TOP10;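 further: peptides expressed intracellularly from a pBAD plasmid library in pooled LB shake-flask culture, induced with 0.3% L-arabinose, DNA abundance read by NGS, three biological replicates, DESeq2 with apeglm shrinkage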
- ASSAY METHOD TEXT: shrunken log2 fold change of peptide-encoding DNA abundance (4.5 h post-induction vs induction); higher = less antimicrobial activity (less host growth inhibition)
- APPLIED CONDITIONS: time post-induction: 4.5 h; library: site-saturation at positions 5, 18, 19, 20
Entry flag: criterion met if shrunken log2 fold change reaches -0.1; criterion not met if it does not.

Some solved cases for reference:
SEQ TEXT	MEASUREMENT TARGET	QUALITATIVE LABEL
RRIRMRPPRLPRPRPRPYCIPRP	Escherichia coli TOP10	criterion met
RRIRKRPPRLPRPRPRPGNFPRP	Escherichia coli TOP10	criterion not met

Problem: Tell me whether shrunken log2 fold change is at least -0.1 here: RRIRTRPPRLPRPRPRPCHFPRP
Result: criterion not met

Problem: Tell me whether shrunken log2 fold change is at least -0.1 here: RRIRERPPRLPRPRPRPHHEPRP
Result: criterion not met

Problem: Tell me whether shrunken log2 fold change is at least -0.1 here: RRIRERPPRLPRPRPRPANCPRP
Result: criterion not met

Problem: Tell me whether shrunken log2 fold change is at least -0.1 here: RRIRHRPPRLPRPRPRPNTLPRP
Result: criterion met

Problem: Tell me whether shrunken log2 fold change is at least -0.1 here: RRIRGRPPRLPRPRPRPFWHPRP
Result: criterion met

Problem: Tell me whether shrunken log2 fold change is at least -0.1 here: RRIRVRPPRLPRPRPRPSSIPRP
Result: criterion not met

Problem: Tell me whether shrunken log2 fold change is at least -0.1 here: RRIRNRPPRLPRPRPRPDIYPRP
Result: criterion not met

Entry source: the supplement of paper PMC9112550
